tested on: HeLa Kyoto; assay: melting temperature (median over replicates), in situ; higher = more thermally stable; details: cell cycle stage: mitosis;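 note: HeLa Kyoto cells synchronized by double thymidine or nocodazole block, proteins quantified by TMT10plex mass spectrometry, three independent biological replicates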
Can you tell me melting temperature for the items I'm about to list?
One number for each entry, in °C.

Sample answers from the record:
MSSIGTGYDLSASTFSPDGRVFQVEYAMKAVENSSTAIGIRCKDGVVFGVEKLVLSKLYEEGSNKRLFNVDRHVGMAVAGLLADARSLADIAREEASNFRSNFGYNIPLKHLADRVAMYVHAYTLYSAVRPFGCSFMLGSYSVNDGAQLYMIDPSGVSYGYWGCAIGKARQAAKTEIEKLQMKEMTCRDIVKEVAKIIYIVHDEVKDKAFELELSWVGELTNGRHEIVPKDIREEAEKYAKESLKEEDESDDDNM [PSMA3] | 56.7
MLRAGWLRGAAALALLLAARVVAAFEPITVGLAIGAASAITGYLSYNDIYCRFAECCREERPLNASALKLDLEEKLFGQHLATEVIFKALTGFRNNKNPKKPLTLSLHGWAGTGKNFVSQIVAENLHPKGLKSNFVHLFVSTLHFPHEQKIKLYQDQLQKWIRGNVSACANSVFIFDEMDKLHPGIIDAIKPFLDYYEQVDGVSYRKAIFIFLSNAGGDLITKTALDFWRAGRKREDIQLKDLEPVLSVGVFNNKHSGLWHSGLIDKNLIDYFIPFLPLEYRHVKMCVRAEMRARGSAIDEDIVTRVAEEMTFFPRDEKIYSDKGCKTVQSRLDFH [TOR1B] | 53.9

# evaluate next
**Q:** Notebook: pull reported melting temperature for HeLa Kyoto, entry MAAAAASLRGVVLGPRGAGLPGARARGLLCSARPGQLPLRTPQAVALSSKSGLSRGRKVMLSALGMLAAGGAGLAMALHSAVSASDLELHPPSYPWSHRGLLSSLDHTSIRRGFQVYKQVCASCHSMDFVAYRHLVGVCYTEDEAKELAAEVEVQDGPNEDGEMFMRPGKLFDYFPKPYPNSEAARAANNGALPPDLSYIVRARHGGEDYVFSLLTGYCEPPTGVSLREGLYFNPYFPGQAIAMAPPIYTDVLEFDDGTPATMSQIAKDVCTFLRWASEPEHDHRKRMGLKMLMMMALLVPLVYTIKRHKWSVLKSRKLAYRPPK [CYC1]
**A:** 53.5
